Cited source: ChEMBL document CHEMBL4725260

assayed-target: UniProt:P04035
procedure-text: Induction of degradation of Flag-tagged human HMGCR-dCat-ELuc membrane domain (1 to 499 residues) expressed in HEK293 cells assessed as reduction in HMGCR-dCat-Eluc protein level after 4 hrs by luciferase reporter assay
Format: cell-based
conditions: read-out: EC50
Listed compounds paired with reported EC50

| compound | EC50 / nM |
| --- | --- |
| CC(C)OP(=O)(OC(C)C)C(Cc1cc(N=[N+]=[N-])cc(C(C)(C)C)c1)P(=O)(OC(C)C)OC(C)C | 1660 |
| CC(C)OP(=O)(OC(C)C)C(=Cc1cc(C(C)(C)C)c(O)c(C(C)(C)C)c1)P(=O)(OC(C)C)OC(C)C | 1340 |
| CC(C)OP(=O)(OC(C)C)C(Cc1cc(C(C)(C)C)nc(C(C)(C)C)c1)P(=O)(OC(C)C)OC(C)C | 153 |
| C#CCCC1(CCOP(=O)(OC(C)C)C(Cc2cc(C(C)(C)C)nc(C(C)(C)C)c2)P(=O)(OC(C)C)OC(C)C)N=N1 (stereo not given) | 417 |
| CCOP(=O)(OCC)C(=Cc1cc(C(C)(C)C)cc(C(C)(C)C)c1)P(=O)(OCC)OCC | 1160 |

---

assayed-target: 3-hydroxy-3-methylglutaryl-coenzyme A reductase (Homo sapiens, UniProt P04035)
Sequence (P04035 whole entry): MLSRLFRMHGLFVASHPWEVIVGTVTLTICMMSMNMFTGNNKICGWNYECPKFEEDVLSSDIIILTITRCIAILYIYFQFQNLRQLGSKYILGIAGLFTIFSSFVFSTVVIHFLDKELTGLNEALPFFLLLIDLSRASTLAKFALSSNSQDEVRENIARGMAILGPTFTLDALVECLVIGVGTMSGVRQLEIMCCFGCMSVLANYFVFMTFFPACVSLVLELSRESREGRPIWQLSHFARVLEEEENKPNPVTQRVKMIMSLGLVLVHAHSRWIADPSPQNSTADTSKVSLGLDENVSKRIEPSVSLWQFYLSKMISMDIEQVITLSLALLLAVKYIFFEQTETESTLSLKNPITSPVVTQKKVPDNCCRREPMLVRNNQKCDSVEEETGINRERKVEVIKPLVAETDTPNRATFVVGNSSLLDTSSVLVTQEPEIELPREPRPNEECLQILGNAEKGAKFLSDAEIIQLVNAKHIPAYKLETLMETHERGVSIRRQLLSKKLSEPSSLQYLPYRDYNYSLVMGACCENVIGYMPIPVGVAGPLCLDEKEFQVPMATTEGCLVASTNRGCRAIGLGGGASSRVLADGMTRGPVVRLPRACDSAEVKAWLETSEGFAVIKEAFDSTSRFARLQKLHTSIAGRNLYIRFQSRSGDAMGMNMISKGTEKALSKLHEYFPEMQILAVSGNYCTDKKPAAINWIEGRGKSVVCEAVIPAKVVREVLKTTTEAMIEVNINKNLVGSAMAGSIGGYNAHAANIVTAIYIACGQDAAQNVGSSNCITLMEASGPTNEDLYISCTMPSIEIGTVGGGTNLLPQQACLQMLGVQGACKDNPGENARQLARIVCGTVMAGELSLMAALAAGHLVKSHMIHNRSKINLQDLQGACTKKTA
procedure-text: Induction of degradation of Flag-tagged human HMGCR-dCat-ELuc membrane domain (1 to 499 residues) expressed in HEK293 cells assessed as reduction in HMGCR-dCat-Eluc protein level after 4 hrs by luciferase reporter assay
Type: cell-based
conditions: read-out: EC50
pEC50: −log10 of the molar value.
So basically: pEC50 at 6 or higher? That is Met. Lower than 6? That is Not met.

| compound | label-value |
| --- | --- |
| CCOP(=O)(OCC)C(Cc1cc(C(C)(C)C)c(O)c(C(C)(C)C)c1)P(=O)(OCC)OCC | Not met |
| CC(C)OP(=O)(OC(C)C)C(Cc1cc(C(C)(C)C)cc(C(C)(C)C)c1)P(=O)(OC(C)C)OC(C)C | Met |
| C#CCOP(=O)(OC(C)C)C(Cc1cc(C(C)(C)C)nc(C(C)(C)C)c1)P(=O)(OC(C)C)OC(C)C (stereo not drawn) | Met |
| C#Cc1cc(CC(P(=O)(OC(C)C)OC(C)C)P(=O)(OC(C)C)OC(C)C)cc(C(C)(C)C)c1 | Not met |
